biological target: Sulfhydryl oxidase 1 (Homo sapiens) (UniProt O00391); assay: inhibition of human sulfhydryl oxidase QSOX1 – biochemical, HyperBlu H2O2 luminescence, HTS, primary screen (AID 1347420); conditions: recombinant QSOX1, HyperBlu H2O2 luminescence; at 12.5 µM; stronger effect = higher value; active = any value above zero; also: values above 100% were filed as inconclusive
Sequence (O00391 whole entry, looked up): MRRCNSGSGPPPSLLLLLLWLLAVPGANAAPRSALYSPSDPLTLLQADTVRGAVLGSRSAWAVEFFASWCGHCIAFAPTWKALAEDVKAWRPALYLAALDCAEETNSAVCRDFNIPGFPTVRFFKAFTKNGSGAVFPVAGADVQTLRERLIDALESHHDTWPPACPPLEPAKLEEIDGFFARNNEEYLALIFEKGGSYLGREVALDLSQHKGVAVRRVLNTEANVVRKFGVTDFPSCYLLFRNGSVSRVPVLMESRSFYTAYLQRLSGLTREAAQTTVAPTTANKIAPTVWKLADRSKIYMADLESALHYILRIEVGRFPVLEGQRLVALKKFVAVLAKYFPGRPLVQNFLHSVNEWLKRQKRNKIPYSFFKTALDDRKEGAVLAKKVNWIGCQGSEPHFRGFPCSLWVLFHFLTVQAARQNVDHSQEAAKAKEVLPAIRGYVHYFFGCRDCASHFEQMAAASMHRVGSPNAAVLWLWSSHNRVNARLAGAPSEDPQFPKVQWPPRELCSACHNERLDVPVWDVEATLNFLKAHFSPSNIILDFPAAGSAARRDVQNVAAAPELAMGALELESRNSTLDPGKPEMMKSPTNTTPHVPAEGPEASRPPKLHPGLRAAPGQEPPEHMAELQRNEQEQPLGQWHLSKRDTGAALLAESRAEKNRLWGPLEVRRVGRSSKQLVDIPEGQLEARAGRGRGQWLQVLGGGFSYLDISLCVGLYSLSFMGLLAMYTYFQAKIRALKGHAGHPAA
The campaign covered roughly 1,300 compounds. About 980 (75%) were called active. About 4% were inconclusive and are not listed. Some of the results follow.
Outcome field: choose from TRUE (active), FALSE (inactive)

Inquiry: // param item: `O=C1CC2(CCCC2)CC(=O)N1CCCCN1CCN(c2ncccn2)CC1` ; yields the recorded call
Reply text: FALSE

Further cases:
Inquiry: // param item: `Nc1ccc(S(=O)(=O)Nc2ccnn2-c2ccccc2)cc1` ; yields the recorded call
Reply text: TRUE

###

molecular target: Sulfhydryl oxidase 1 (Homo sapiens) (UniProt O00391); assay: inhibition of human sulfhydryl oxidase QSOX1 – biochemical, HyperBlu H2O2 luminescence, HTS, primary screen (AID 1347420); conditions: recombinant QSOX1, HyperBlu H2O2 luminescence; at 12.5 µM; stronger effect = higher value; active = any value above zero; also: values above 100% were filed as inconclusive
Screen size: about 1,300 compounds; about 980 (75%) were called active. Another 4% or so got no clear call; they are omitted. The list shows a part of the results.
measure_name: inhibition (%)
Numbers only; they are read as %.

Below are worked cases with known answers.
Inquiry: Query: inhibition; subject: CC(C)(C)c1onc(OCP(=O)(O)O)c1CC(N)C(=O)O (configuration not stated)
Reply text: 24.4

Inquiry: Query: inhibition; subject: `CCCCCCCCCCC/C=C\C(C)(C)/C=C\CCCC(=O)O`
Reply text: 25.2

Inquiry: Query: inhibition; subject: `Cc1nc(N=NC2=[C+]C3=C(C=C([N+](=O)[O-])[C+]=C3S(=O)(=O)[O-])C(S(=O)(=O)[O-])=[C+]2)c(COP(=O)([O-])O)c(C=O)c1O`
Reply text: 53.8

Inquiry: Query: inhibition; subject: CO/N=C(\C(=O)N[C@@H]1C(=O)N2C(C(=O)O)=C(CSc3nc(=O)c(O)nn3C)CSC12)c1csc(N)n1 (some centres not stated)
Reply text: 24.6

Inquiry: Query: inhibition; subject: CC1COc2c(N3CCN(C)CC3)c(F)cc3c(=O)c(C(=O)O)cn1c23 (configuration not stated)
Reply text: 5.3

Further cases:
Inquiry: Query: inhibition; subject: `Cn1ncc(S(=O)(=O)Cc2ccccc2)c(Br)c1=O`
Reply text: 11.5

Inquiry: Query: inhibition; subject: CC(C(O)c1ccc(O)cc1)N1CCC(Cc2ccccc2)CC1 (configuration not stated)
Reply text: 4

Inquiry: Query: inhibition; subject: `c1ccc([C@H]2CN3CCSC3=N2)cc1`
Reply text: 10.2

Inquiry: Query: inhibition; subject: `CN(C)CC[C@@H](c1ccc(Cl)cc1)c1ccccn1`
Reply text: 3.5

Inquiry: Query: inhibition; subject: `CCO/C([O-])=N/c1c[n+](N2CCOCC2)no1`
Reply text: -0.8

Inquiry: Query: inhibition; subject: `CCCCCCC/C=C\CCCCCCCCC(=O)O`
Reply text: 11

###

target: Sulfhydryl oxidase 1 (Homo sapiens) (UniProt O00391); experiment: inhibition of human sulfhydryl oxidase QSOX1 – biochemical, HyperBlu H2O2 luminescence, HTS, primary screen (AID 1347420); details: recombinant QSOX1, HyperBlu H2O2 luminescence; at 12.5 µM; stronger effect = higher value; active = any value above zero; also: values above 100% were filed as inconclusive
The whole screen tested about 1,300 compounds, of which about 980 (75%) were called active. Not shown: some 4% with an inconclusive outcome. Some of the results follow. Residues, ends and D or L forms follow the SMILES beside them. *: point of attachment. Cbz = O=C(OCc1ccccc1)*
Decide by inhibition: equal to or exceeding 10% means Criterion met, less means Criterion not met.

Inquiry: Would you say `CCCCCCCCCCCCCCCCCCOC[C@H](COP(=O)([O-])OCC[N+](C)(C)C)OC` shows inhibition at minimum 10%?
Reply text: Criterion not met

Inquiry: Would you say `N[C@@H](Cc1c[nH]c2ccc(O)cc12)C(=O)O` shows inhibition at minimum 10%?
Reply text: Criterion met

Inquiry: Would you say CC(COc1ccccc1)N(CCCl)Cc1ccccc1 (configuration not stated) shows inhibition at minimum 10%?
Reply text: Criterion not met

Inquiry: Would you say Nc1ncn([C@@H]2O[C@H](CO)[C@H](O)C2O)c(=O)n1 (some centres not stated) shows inhibition at minimum 10%?
Reply text: Criterion met

Further cases:
Inquiry: Would you say `Cn1cc(C(=O)OCC2CCN(CCNS(C)(=O)=O)CC2)c2ccccc21` shows inhibition at minimum 10%?
Reply text: Criterion not met

Inquiry: Would you say `CCCc1c(-c2ccc(O)cc2)nn(-c2ccc(O)cc2)c1-c1ccc(O)cc1` shows inhibition at minimum 10%?
Reply text: Criterion met

Inquiry: Would you say `O=C(N[C@@H](Cc1ccccc1)C(=O)CCl)OCc1ccccc1` shows inhibition at minimum 10%?
Reply text: Criterion not met

Inquiry: Would you say `NC[C@H]1O[C@@H](n2cnc3c(N)ncnc32)[C@H](O)[C@@H]1O` shows inhibition at minimum 10%?
Reply text: Criterion met

Inquiry: Would you say `C#CCN(C)CCCOc1ccc(Cl)cc1Cl` shows inhibition at minimum 10%?
Reply text: Criterion not met

Inquiry: Would you say CCC1(O)CC2CN(CCc3c([nH]c4ccccc34)[C@@](C(=O)OC)(c3cc4c(cc3OC)N(C=O)C3[C@]45CCN4CC=C[C@@](CC)([C@@H](OC(C)=O)[C@]3(O)C(=O)OC)[C@H]45)C2)C1 (some centres not stated) shows inhibition at minimum 10%?
Reply text: Criterion not met

Inquiry: Would you say Nc1nc(SCc2ccc([N+](=O)[O-])cc2)c2ncn([C@@H]3O[C@H](CO)[C@H](O)C3O)c2n1 (some centres not stated) shows inhibition at minimum 10%?
Reply text: Criterion met

Inquiry: Would you say `S=C(Nc1ccccc1)Nc1nccs1` shows inhibition at minimum 10%?
Reply text: Criterion met

Inquiry: Would you say `CS(=O)(=O)Nc1ccc([N+](=O)[O-])cc1Oc1ccccc1` shows inhibition at minimum 10%?
Reply text: Criterion met

Inquiry: Would you say Nc1nc(Cl)nc2c1ncn2[C@@H]1O[C@H](CO)[C@H](O)C1O (some centres not stated) shows inhibition at minimum 10%?
Reply text: Criterion met

Inquiry: Would you say CC(C)[C@H](NC(=O)OCc1ccccc1)C(=O)N[C@H](C=O)Cc1ccccc1 (Cbz-Val-Phe-aldehyde) shows inhibition at minimum 10%?
Reply text: Criterion not met

Inquiry: Would you say CCC1C(=O)OCC1Cc1cncn1C (configuration not stated) shows inhibition at minimum 10%?
Reply text: Criterion not met

Inquiry: Would you say `Cc1ccc(O)c(N=Nc2ccccc2)n1` shows inhibition at minimum 10%?
Reply text: Criterion met

Inquiry: Would you say `COc1cccc2c1[C@@H]1CN(CCCCn3c(=O)[nH]c4c(sc5ncc(-c6ccccc6)nc54)c3=O)C[C@@H]1CO2` shows inhibition at minimum 10%?
Reply text: Criterion met

Inquiry: Would you say CCC1(O)CC2CN(CCc3c([nH]c4ccccc34)[C@@](C(=O)OC)(c3cc4c(cc3OC)N(C)C3[C@]45CCN4CC=C[C@@](CC)([C@@H](OC(C)=O)[C@]3(O)C(=O)OC)[C@H]45)C2)C1 (some centres not stated) shows inhibition at minimum 10%?
Reply text: Criterion met

Inquiry: Would you say `CCN(CC)CCNC(=O)c1ccc(NC(C)=O)cc1` shows inhibition at minimum 10%?
Reply text: Criterion not met

Inquiry: Would you say CC(=O)O[C@H]1C(=O)[C@@]2(C)C([C@H](OC(=O)c3ccccc3)[C@]3(O)C[C@H](OC(=O)[C@H](O)[C@@H](NC(=O)c4ccccc4)c4ccccc4)C(C)=C1C3(C)C)[C@]1(OC(C)=O)CO[C@@H]1C[C@@H]2O (some centres not stated) shows inhibition at minimum 10%?
Reply text: Criterion not met

Inquiry: Would you say `Cc1nc2c(OCc3ccccc3)cccn2c1CC#N` shows inhibition at minimum 10%?
Reply text: Criterion met

###

target: Sulfhydryl oxidase 1 (Homo sapiens); assay: inhibition of human sulfhydryl oxidase QSOX1 – biochemical, HyperBlu H2O2 luminescence, HTS, primary screen (AID 1347420); conditions: recombinant QSOX1, HyperBlu H2O2 luminescence; at 12.5 µM; stronger effect = higher value; active = any value above zero; also: values above 100% were filed as inconclusive
Hit rate of the full screen: of about 1,300 compounds, about 980 (75%) were called active. Not shown: some 4% with an inconclusive outcome. Some of the results follow.
Outcome field: choose from class 1 for active, class 0 for inactive

Inquiry: // param item: `COc1ccc(NC(=O)/C=C/c2ccc(Cl)cc2)cc1` ; yields the recorded call
Reply text: class 1

Inquiry: // param item: `O=C(O)/C=C/c1cnc[nH]1` ; yields the recorded call
Reply text: class 1

Inquiry: // param item: `CCN(CC)CCNC(=O)c1cc(Cl)c(N)cc1OC` ; yields the recorded call
Reply text: class 1

Inquiry: // param item: `CCc1cccc(N(C)C(N)=Nc2cccc3ccccc23)c1` ; yields the recorded call
Reply text: class 0

Inquiry: // param item: `CC[C@H](C)C(=O)O[C@H]1CCC=C2C=C[C@H](C)[C@H](CC[C@@H]3C[C@@H](O)CC(=O)O3)[C@H]21` ; yields the recorded call
Reply text: class 1

Further cases:
Inquiry: // param item: `Nc1ncnc2n[nH]c(Nc3ccc(F)cc3)c12` ; yields the recorded call
Reply text: class 1
